Each recorded value in this set is attributed to patent US20100041746A1.

test system: mCD36; assay: Gene expression in C2C12 muscle cells (TaqMan RT-PCR): mCD36; type: cell-based, mouse; conditions: C2C12 cells, 24 h incubation, mRNA
Response key: Y means mCD36 fold of induction compared to DMSO control >= 3 fold; N means mCD36 fold of induction compared to DMSO control < 3 fold.

compound="COc1ccc(C(=O)C=Cc2cccc(OC(=O)C=Cc3ccccc3)c2)cc1 [Compound 5]" label_value=N
compound="COc1ccc(C(=O)C=Cc2ccc(OC)cc2OC)cc1 [Compound 8]" label_value=Y
compound="COc1ccc(C(=O)C=Cc2ccc(OC)c(OC)c2)cc1 [Compound 6]" label_value=Y
compound="COc1cc(C=CC(=O)NC(=O)c2ccccc2O)cc(OC)c1OC [Compound 2]" label_value=Y
compound="COc1ccc(C(=O)/C=C/c2c(CCN(C)C(C)=O)cc3c(c2OC)OCO3)cc1 [Compound 4]" label_value=Y
compound="COc1ccc(C=CC(=O)c2cc(OC)ccc2OC)c(OC)c1 [Compound 3]" label_value=Y
